molecular target: Epidermal growth factor receptor [L858R,C797S] (Human, UniProt P00533, C797S/L858R); experiment: Biochemical Assay Against EGFR L858R/C797S Protein (EGFR LR/CS)
Sequence (P00533 25-1210 C797S/L858R limits assumed): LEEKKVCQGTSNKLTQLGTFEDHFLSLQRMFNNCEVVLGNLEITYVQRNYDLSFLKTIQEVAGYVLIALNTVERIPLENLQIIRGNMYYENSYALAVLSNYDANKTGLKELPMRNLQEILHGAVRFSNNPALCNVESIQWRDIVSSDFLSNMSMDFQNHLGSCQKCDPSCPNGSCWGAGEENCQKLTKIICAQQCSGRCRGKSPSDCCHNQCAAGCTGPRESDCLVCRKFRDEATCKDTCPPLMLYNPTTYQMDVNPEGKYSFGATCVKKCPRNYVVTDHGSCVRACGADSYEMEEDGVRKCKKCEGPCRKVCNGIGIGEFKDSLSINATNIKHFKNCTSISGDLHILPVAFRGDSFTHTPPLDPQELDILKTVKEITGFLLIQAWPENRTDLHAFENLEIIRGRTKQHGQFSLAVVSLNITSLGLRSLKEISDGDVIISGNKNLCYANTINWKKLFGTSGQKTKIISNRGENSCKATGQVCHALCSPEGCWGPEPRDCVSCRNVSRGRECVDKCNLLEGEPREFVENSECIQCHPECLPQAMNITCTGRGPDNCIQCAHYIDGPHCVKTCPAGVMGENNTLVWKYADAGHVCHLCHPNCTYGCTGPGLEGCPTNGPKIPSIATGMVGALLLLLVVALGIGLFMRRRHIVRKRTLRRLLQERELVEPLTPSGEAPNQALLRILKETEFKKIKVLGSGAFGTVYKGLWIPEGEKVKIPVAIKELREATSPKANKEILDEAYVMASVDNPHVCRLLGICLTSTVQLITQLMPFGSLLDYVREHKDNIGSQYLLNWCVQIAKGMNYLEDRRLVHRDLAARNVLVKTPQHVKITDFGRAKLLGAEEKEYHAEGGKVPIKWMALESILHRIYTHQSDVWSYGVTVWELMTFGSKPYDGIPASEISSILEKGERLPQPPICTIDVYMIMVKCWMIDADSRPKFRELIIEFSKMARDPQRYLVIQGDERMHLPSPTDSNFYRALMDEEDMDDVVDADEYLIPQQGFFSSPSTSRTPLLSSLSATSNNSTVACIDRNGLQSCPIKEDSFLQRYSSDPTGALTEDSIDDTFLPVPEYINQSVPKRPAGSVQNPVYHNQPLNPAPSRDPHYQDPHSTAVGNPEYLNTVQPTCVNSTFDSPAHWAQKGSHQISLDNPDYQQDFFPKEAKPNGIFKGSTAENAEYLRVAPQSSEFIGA
METRIC: IC50

State, for Epidermal growth factor receptor [L858R,C797S] (Human, UniProt P00533, C797S/L858R), measured IC50 of the compound listed here: O=S1(=O)CCC(n2cc(-c3ncnc4oc(-c5ccccc5)cc34)c(-c3ccc(F)cc3)n2)CC1
6.32 nM

All figures here come from BindingDB's records for patent US20250034159.
